Target: S#074: VL-L2-VH CAR-T
Assay: flow cytometry on CAR-T cells; PE-labeled secondary antibody; PE-positive cells / total cells
experimental_endpoint: Reactivity (%)

query: I am curious: what Reactivity (%) value has been reported for 2D12-B12 (antibody, V domains shown) VH: EVKLVESGGGLVQPGRSLKLSCAASGFNFNDYWMGWVRQAPGKGLEWIGEIKKDSSIINYIPSLKDKFTISRDNAQNTLYLQMSKLGSEDTAIYYCARGVEYYGYHYWGQGTLVTVSS VL: DIVMTQSPSSLAVSAGETVTINCKSSQSLLYSGNQKNYLAWYQQKPGQSPKLLIYWASTRHSGVPARFIGSGSGSDFTLTISSVQAEDLAIYCCQQYYDIPYTFGAGTKLELK ?
result: 0.8%

query: I am curious: what Reactivity (%) value has been reported for 4B9-B11 (antibody, V domains shown) VH: QMQLKESGPGLVQPSETLSLTCTVSGFSLTSYSVSWVRQPSGKGPEWMGRMYYDGDTAYNSALKSRLSISRDTSKNQVFLKMNSLQTDDTGTYYCTRSIGAEDYWGQGVMVTVSS VL: TSYELIQPPSASVTLGNTVSLTCVGDELPKRYAYWYQQKPDQSIVRVIYEDSKRPSGISDRFSGSSSGTTATLTIRDAQNEDEADYYCHSTYSDDKLRIFGGGTKLTVLG ?
result: 1.4%

query: I am curious: what Reactivity (%) value has been reported for 3E7-C1 (antibody, V domains shown) VH: QVQMKESGPGLVQPSETLSLTCTVSGFSLTSYGVSWVRQPSGKGPEWMGRLWNDGDTAYNSALKSRLSISRDTSKNQVFLKMNSLQTDDTGTYYCTTMNGYKDYWGQGVMVTVSS VL: TSYELIQPPSASVTLGNTVSLTCVGDELPKRYAYWYQQKPDQSIVRVIYEDSKRPSGISDRFSGSSSGTTATLTIRDAQAEDEADYYCHSTYSDDKLRIFGGGTKLTVLG ?
result: 0.1%

query: I am curious: what Reactivity (%) value has been reported for 3A4-A10-7 (antibody, V domains shown) VH: QVQLQQSGAALVKPGASVKMSCKASGYTFTDCWVSWVKQSHGKSLEWIGEIHPNSGTTNFNEKFKGKATLTVDKSTSTAYMELSRLTSEDSAIYYCTRAYGGYPFDYWGQGVMVTVSS VL: ADLVLTQPKSVSTSLESTVKLSCKLNSGNIGRYYMHWYQQHEGRSPTNMIYRDDKRPDGVPDRFSGSIDSSSNSAFLTINNVQTEDEAIYFCHSYDSSINIFGGGTKLTVLG ?
result: 0.2%
